Hey, just so you know, these numbers are from patent US12540141B2.

Quick reference for pIC50 among some compounds
Biological target: SARS-CoV-2 3CL-protease (Severe acute respiratory syndrome coronavirus 2, UniProt P0DTD1)
Assay: SARS-CoV-2 3C-Like (3CL) Protease Fluorescence Assay (FRET)
Type: biochemical
Details: SARS-CoV-2 3CL-protease 10 nM, 30 min preincubation at RT, substrate 40 μM
pIC50: −log10 of the molar value.

Solved cases (5 shown):
CC(C)C[C@@H](C(=O)N1C[C@]2(C[C@H]1C(O)S(=O)(=O)O)C(=O)Nc1ccccc12)N(C)C(=O)c1cc2c(F)cc(F)cc2[nH]1 (stereo partly drawn)
> 7.00
CC(C)C[C@@H](C(=O)N1C[C@]2(C[C@H]1C#N)C(=O)Nc1ccccc12)N(C)C(=O)N1CC[C@H](O)C1
6.00 to 7.00
CC(C)(C)C[C@H](NC(=O)c1cn(C2CCC2)nn1)C(=O)N1C[C@]2(C[C@H]1C#N)C(=O)Nc1ccccc12
> 7.00
CN(C(=O)C(F)(F)F)[C@@H](CC(C)(C)C)C(=O)N1C[C@]2(C[C@H]1C#N)C(=O)Nc1ccccc12
6.00 to 7.00
CN(C(=O)CCN1CCC1)[C@@H](CC(C)(C)F)C(=O)N1C[C@]2(C[C@H]1C#N)C(=O)Nc1ccccc12
> 7.00

Turning now to a further record.
Reported pIC50 of C[C@@H](CC(=O)N[C@@H](CC(C)(C)C)C(=O)N1C[C@]2(C[C@H]1C#N)C(=O)Nc1ccccc12)NC(=O)OCc1ccccc1 : 6.00 to 7.00
